experimentalProtocol: qHTS RealTime-Glo MT Cell Viability Assay in HepG2 cells - 40 hour (AID 1224870); further: on the % scale 0 is the no-effect control and ±100 the full control effect; nearly all actives have a fitted effect of over 50% in size
runParameters: RealTime-Glo luminescence; series mostly up to 76.8 µM
Records with an inconclusive call do not appear. Active and inactive are the calls of the source. The call rests on the fitted dose curve; in most records, active means well fitted cell-killing curve with a large enough effect in the repeat runs; inconclusive means weak or mixed curves, or effect the other way; inactive means flat fitted curve, though single readings scatter.
readoutKind: outcome

C=CC(=O)O[C@H]1C[C@@H]2CC[C@@]1(C)C2(C)C | inactive
CCOC=C(C(=O)OCC)C(=O)OCC | inactive
c1ccc(-c2ccc(C(c3ccccc3)n3ccnc3)cc2)cc1 (configuration not stated) | inactive
CCOc1ccc([N+](=O)[O-])cc1 | inactive
CCC1(C)C(=O)N(Cl)C(=O)N1Cl (configuration not stated) | inactive

Lookup result for "O=C1OC2(c3ccccc31)c1ccc(O)c(Br)c1Oc1c2ccc(O)c1Br" ; measured outcome: inactive

====

experimentalProtocol: qHTS assay to identify small molecule agonists of the estrogen related receptor signaling pathway with the pleiotropic PPARgamma coactivator (PGC) from Tox21 10K library (AID 1224842); further: on the % scale 0 is the no-effect control and ±100 the full control effect; nearly all actives have a fitted effect of over 15% in size
runParameters: PGC/ERR reporter cell line, luciferase ONE-Glo, 18 h; series mostly up to 92.4 µM
Results filed as inconclusive are left out. The source made the active and inactive calls. The call rests on the fitted dose curve; in most records, active means well fitted activation curve with a large enough effect in the repeat runs; inconclusive means weak or mixed curves, or effect the other way; inactive means no such curve, though single readings can be large or run the other way.
readoutKind: Potency

Below: 8 molecules and their reported Potency.
CCc1c(C)cc(N)c(CC)c1N | inactive
CC(C)C(=O)C(C)C | inactive
CCCCCCCCSCc1cc(C)c(O)c(CSCCCCCCCC)c1 | inactive
N#CCCOCCC#N | inactive
C1CCSC1 | inactive
O=C(Nc1ccccc1)c1cc(Cl)ccc1O | inactive
O=[N+]([O-])c1ccc(O)c2ncccc12 | inactive
Cc1c[nH]c(=O)[nH]c1=O | inactive

Lookup result for "[Cl][Sc]([Cl])[Cl]" ; measured Potency: inactive

Lookup result for "Clc1cccc(Cl)n1" ; measured Potency: inactive

Lookup result for "COc1cc(OC)nc(NC(=O)NS(=O)(=O)Nc2ccccc2C(=O)N(C)C)n1" ; measured Potency: inactive

====

experimentalProtocol: qHTS assay to identify small molecule antagonists of the estrogen related receptor (ERR) signaling pathway from Tox21 library - cell viability counter screen (AID 1224834); further: on the % scale 0 is the no-effect control and ±100 the full control effect; nearly all actives have a fitted effect of over 30% in size
runParameters: ERR reporter cells viability, CellTiter-Fluor, 17.5 h; series mostly up to 92.4 µM
Results filed as inconclusive are left out. Active and inactive are the calls of the source. Calls come from the whole dose curve; as a rule, active = well fitted cell-killing curve with a large enough effect in the repeat runs; inconclusive = weak or mixed curves; inactive = flat fitted curve, though single readings scatter.
Classes to choose from: 1.0 for active, 0.0 for inactive

Past entries and their recorded results:
CC(C)=CCC[C@H](C)CC=O | 0.0
COC(=O)c1ccc([N+](=O)[O-])cc1 | 0.0
C1CCSC1 | 0.0

How was "CC1(C)[C@H]2CC[C@]1(C)C(=O)C2" classified in this test?
0.0

How was "C/C(=N\[Si](C)(C)C)O[Si](C)(C)C" classified in this test?
0.0

====

Reported activity change, negative = cytotoxicity values follow for various compounds
experimentalProtocol: qHTS assay to identify small molecule antagonists of the retinoid acid receptor (RAR) signaling pathway - cell viability counter screen (AID 1159551); further: on the % scale 0 is the no-effect control and ±100 the full control effect; nearly all actives have a fitted effect of over 35% in size
runParameters: C3RL4 cells viability, ATP luminescence (CellTiter-Glo), 6 h; series mostly up to 92.4 µM
Records with an inconclusive call do not appear. Calls of active or inactive are those of the source. Calls follow the shape of the dose curve; as a rule, active = well fitted cell-killing curve with a large enough effect in the repeat runs; inconclusive = weak or mixed curves, or effect the other way; inactive = flat fitted curve, though single readings scatter.

Below: 4 compounds and their reported activity change, negative = cytotoxicity.
CCCCCCCCCCCCS(=O)(=O)Cl | 0.197% [at 19 µM] (inactive)
COc1cc2ncnc(Nc3cccc(Cl)c3)c2cc1OC | 0.617% [at 19 µM] (inactive)
C=C[Si](C)(C)Cl | -1.54% [at 8.39 µM] (inactive)
CCCCNc1ccc(NCCCC)c2c1C(=O)c1ccccc1C2=O | 0.361% [at 19 µM] (inactive)

Lookup result for "O=C(O)CN(CCCN(CC(=O)O)CC(=O)O)CC(=O)O" ; measured activity change, negative = cytotoxicity: 0.537% [at 19 µM] (inactive)

Lookup result for "O=C(O)C[C@H](O)C[C@H](O)/C=C/c1c(C2CC2)nc2ccccc2c1-c1ccc(F)cc1" ; measured activity change, negative = cytotoxicity: 1.42% [at 19 µM] (inactive)

====

experimentalProtocol: qHTS assay to test for compound auto fluorescence at 535 nm (green) in HepG2 cells (AID 720675); further: on the % scale 0 is the no-effect control and ±100 the full control effect
runParameters: green autofluorescence 485/535 nm, 1 h; series mostly up to 46 µM
From the text: National Center for Advancing Translational Sciences [NCATS] NIH Chemical Genomics Center [NCGC] U.S. Environmental Protection Agency [EPA] National Institutes of Environmental Health Sciences [NIEHS] National Toxicology Program [NTP] U.S. Food and Drug Administration [FDA] Compound auto fluorescence often interferes with screening of the compound library against various biological targets and signaling pathways. Some of these compounds may have fluorophoric properties. […]
The source made the active and inactive calls. Calls follow the shape of the dose curve; as a rule, active = well fitted curve in the direction sought with a large enough effect in the repeat runs; inconclusive = weak or mixed curves; inactive = flat fitted curve, though single readings scatter.
Classes to choose from: active, inactive

Past entries and their recorded results:
O=C1CCCCCCCCCCCCCC1 | inactive
O=C1c2ccccc2C(=O)C1c1ccc(F)cc1 | inactive

How was CCN(CC)CC#CCOC(=O)C(O)(c1ccccc1)C1CCCCC1 (stereo not drawn) classified in this test?
inactive

How was "Oc1ccc(Cl)cc1C1CCCC1" classified in this test?
inactive

====

experimentalProtocol: qHTS assay to identify small molecule agonists of H2AX - cell viability counter screen (AID 1224847); further: nearly all actives have a fitted effect of over 30% in size
runParameters: CHO-K1 viability, CellTiter-Glo luminescence, 3 h; series mostly up to 154 µM
Records with an inconclusive call do not appear. Calls of active or inactive are those of the source. Calls come from the whole dose curve.
Classes to choose from: active, inactive

Past entries and their recorded results:
C/C(=N\[Si](C)(C)C)O[Si](C)(C)C | inactive
O=C(c1ccccc1)c1ccc(Cl)cc1 | inactive
CN(C[C@@H](CC[N+]12CCC(C3CCCCC3)(CC1)CC2)c1ccc(Cl)c(Cl)c1)C(=O)c1cc(C(F)(F)F)cc(C(F)(F)F)c1 | active
CCOc1ccc([N+](=O)[O-])cc1 | inactive
Nc1ccc(Cl)c([N+](=O)[O-])c1 | inactive

How was "[Cl][Sc]([Cl])[Cl]" classified in this test?
inactive

====

experimentalProtocol: qHTS assay to identify small molecule antagonists of the sonic hedgehog signaling (Shh) pathway - cell viability counter screen (AID 1259367); further: nearly all actives have a fitted effect of over 55% in size
runParameters: NIH/3T3 Gli1-Luc viability, CellTiter-Fluor, 24 h; series mostly up to 92.4 µM
Inconclusive results are not listed. Calls of active or inactive are those of the source. Calls come from the whole dose curve; as a rule, active = well fitted cell-killing curve with a large enough effect in the repeat runs; inconclusive = weak or mixed curves, or effect the other way; inactive = no such curve, though single readings can be large or run the other way.
Classes to choose from: active, inactive

Past entries and their recorded results:
CN(C/C=C/c1ccccc1)Cc1cccc2ccccc12 | inactive
Cc1ccc(S(=O)(=O)C(I)I)cc1 | active
CC1(C)[C@H]2CC[C@]1(C)C(=O)C2 | inactive
CCc1cccc(C)c1N(C(=O)CS(=O)(=O)O)C(C)COC (stereo unspecified) | inactive
Cn1c(=O)[nH]c2ncn(C)c2c1=O | inactive

We next turn to a different compound, shown below.
How was "Cc1ccc(C=O)cc1" classified in this test?
inactive

====

assayedTarget: Estrogen receptor (Homo sapiens) (UniProt P03372)
Sequence (P03372 whole entry, looked up): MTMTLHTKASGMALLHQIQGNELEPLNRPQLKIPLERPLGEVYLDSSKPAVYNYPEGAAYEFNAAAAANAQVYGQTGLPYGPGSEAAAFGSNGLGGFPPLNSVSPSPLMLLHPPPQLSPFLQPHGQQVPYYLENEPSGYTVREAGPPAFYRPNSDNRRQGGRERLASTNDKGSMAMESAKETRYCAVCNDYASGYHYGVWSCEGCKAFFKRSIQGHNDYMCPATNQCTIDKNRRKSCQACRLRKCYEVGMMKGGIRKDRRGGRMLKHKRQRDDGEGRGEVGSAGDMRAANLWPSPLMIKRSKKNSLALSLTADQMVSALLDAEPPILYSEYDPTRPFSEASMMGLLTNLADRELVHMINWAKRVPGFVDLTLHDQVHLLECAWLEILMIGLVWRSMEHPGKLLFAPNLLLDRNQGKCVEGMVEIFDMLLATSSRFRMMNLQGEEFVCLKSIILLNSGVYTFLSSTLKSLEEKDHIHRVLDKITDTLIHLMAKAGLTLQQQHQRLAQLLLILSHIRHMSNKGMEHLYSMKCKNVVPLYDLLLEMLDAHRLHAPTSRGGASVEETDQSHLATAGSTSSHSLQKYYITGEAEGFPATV
experimentalProtocol: qHTS assay to identify small molecule agonists of the estrogen receptor alpha (ER-alpha) signaling pathway using the BG1 cell line (AID 743079); further: on the % scale 0 is the no-effect control and ±100 the full control effect; nearly all actives have a fitted effect of over 20% in size
runParameters: BG1Luc4E2 cells, ERE-luciferase agonist, 22 h; series mostly up to 70.3 µM
Results filed as inconclusive are left out. Active and inactive are the calls of the source. Calls come from the whole dose curve; as a rule, active = well fitted activation curve with a large enough effect in the repeat runs; inconclusive = weak or mixed curves, or effect the other way; inactive = no such curve, though single readings can be large or run the other way.
readoutKind: outcome

O=C1OC(O)C(C(Cl)Cl)=C1Cl (stereo not drawn) | inactive
C[C@H](NCCc1ccc(O)cc1)[C@H](O)c1ccc(O)cc1 | inactive
NCCCC(=O)O | inactive

====

experimentalProtocol: qHTS assay for small molecules that induce genotoxicity in human embryonic kidney cells expressing luciferase-tagged ATAD5 - cell viability (AID 651634); further: nearly all actives have a fitted effect of over 25% in size
runParameters: HEK293T ATAD5-luc cells viability, CellTiter-Fluor, 15.5 h; series mostly up to 83.3 µM
Records with an inconclusive call do not appear. The source made the active and inactive calls. Calls come from the whole dose curve.
Classes to choose from: active, inactive

Past entries and their recorded results:
NS(=O)(=O)c1cc(Cl)c(Cl)c(S(N)(=O)=O)c1 | inactive
Nc1nc(/C(=C/CC(=O)O)C(=O)N[C@@H]2C(=O)N3C(C(=O)O)=CCS[C@H]23)cs1 | inactive
CN1CCN(c2ccccc2/C=C2\SCCN(c3ccc(Cl)c(Cl)c3)C2=O)CC1 | inactive
C[C@H](NCCc1ccc(O)cc1)[C@H](O)c1ccc(O)cc1 | inactive
CC(=O)Oc1cc(C(F)(F)F)ccc1C(=O)O | inactive

How was "CN(C/C=C/c1ccccc1)Cc1cccc2ccccc12" classified in this test?
inactive

How was "C[C@]12O[C@H](C[C@]1(O)CO)n1c3ccccc3c3c4c(c5c6ccccc6n2c5c31)CNC4=O" classified in this test?
active

How was "CC[C@H]1OC(=O)[C@H](C)C(=O)[C@H](C)[C@@H](O[C@@H]2O[C@H](C)C[C@H](N(C)C)[C@H]2O)[C@](C)(OC)C[C@@H](C)C(=O)[C@H](C)[C@H]2N(CCCCn3cnc(-c4cccnc4)c3)C(=O)O[C@]12C" classified in this test?
inactive

How was "CCCOC(=O)c1ccc(O)cc1" classified in this test?
inactive

The values you see were collected from PubChem BioAssay (Tox21).
